Biological target: T1, Trypsin, Iodination grade, from human pancreas (human, UniProt P07477 24-247)
T1 construct: purified natural enzyme, bought
Assay: enzyme inhibition, pNA substrate
Bridges are numbered along the chain shown (N, C = ends). [ ]: non-standard residue; d: D form. Nle = CCCC[C@H](N)C(=O)O
Some binders, each annotated with its measured % inhibition at 100 µM.
Just the number in %, nothing appended.

Examples from the recorded data:
Binder: XCTASIPPQCY (HELM PEPTIDE1{[CCCCCC[C@H](N[*:1])C(=O)[*:2]].C.T.A.S.I.P.P.Q.C.Y.[dP].P}$PEPTIDE1,PEPTIDE1,2:R3-10:R3|PEPTIDE1,PEPTIDE1,1:R1-13:R2$$$V2.0; SMILES CCCCCC[C@@H]1NC(=O)[C@@H]2CCCN2C(=O)[C@H]2CCCN2C(=O)[C@H](Cc2ccc(O)cc2)NC(=O)[C@@H]2CSSC[C@H](NC1=O)C(=O)N[C@@H]([C@@H](C)O)C(=O)N[C@@H](C)C(=O)N[C@@H](CO)C(=O)N[C@@H]([C@@H](C)CC)C(=O)N1CCC[C@H]1C(=O)N1CCC[C@H]1C(=O)N[C@@H](CCC(N)=O)C(=O)N2, also called Ex. 99) [Example 99]
Measured Endpoint: % inhibition at 100 µM
Measured Result: 30.5
//
Binder: cyclo([Nle]CTASIPPQCY[dF]P) (disulfide 2-10) [Example 116]
Measured Endpoint: % inhibition at 100 µM
Measured Result: 0
//
Binder: XCTASXPPQCY (HELM PEPTIDE1{[Nle].C.T.A.S.[Cha].P.P.Q.C.Y.[dP].P}$PEPTIDE1,PEPTIDE1,2:R3-10:R3|PEPTIDE1,PEPTIDE1,1:R1-13:R2$$$V2.0; SMILES CCCC[C@@H]1NC(=O)[C@@H]2CCCN2C(=O)[C@H]2CCCN2C(=O)[C@H](Cc2ccc(O)cc2)NC(=O)[C@@H]2CSSC[C@H](NC1=O)C(=O)N[C@@H]([C@@H](C)O)C(=O)N[C@@H](C)C(=O)N[C@@H](CO)C(=O)N[C@@H](CC1CCCCC1)C(=O)N1CCC[C@H]1C(=O)N1CCC[C@H]1C(=O)N[C@@H](CCC(N)=O)C(=O)N2, also called Ex. 141) [Example 141]
Measured Endpoint: % inhibition at 100 µM
Measured Result: 0
//
Binder: XCTASIPPQCY (HELM PEPTIDE1{[Nle].C.T.A.S.I.P.P.Q.C.Y.[dK].E}$PEPTIDE1,PEPTIDE1,2:R3-10:R3|PEPTIDE1,PEPTIDE1,1:R1-13:R2$$$V2.0; SMILES CCCC[C@@H]1NC(=O)[C@H](CCC(=O)O)NC(=O)[C@@H](CCCCN)NC(=O)[C@H](Cc2ccc(O)cc2)NC(=O)[C@@H]2CSSC[C@H](NC1=O)C(=O)N[C@@H]([C@@H](C)O)C(=O)N[C@@H](C)C(=O)N[C@@H](CO)C(=O)N[C@@H]([C@@H](C)CC)C(=O)N1CCC[C@H]1C(=O)N1CCC[C@H]1C(=O)N[C@@H](CCC(N)=O)C(=O)N2) [Example 127]
Measured Endpoint: % inhibition at 100 µM
Measured Result: 0
//
Binder: XCTASIPPQCQ (HELM PEPTIDE1{[Nle].C.T.A.S.I.P.P.Q.C.Q.[dP].P}$PEPTIDE1,PEPTIDE1,2:R3-10:R3|PEPTIDE1,PEPTIDE1,1:R1-13:R2$$$V2.0; SMILES CCCC[C@@H]1NC(=O)[C@@H]2CCCN2C(=O)[C@H]2CCCN2C(=O)[C@H](CCC(N)=O)NC(=O)[C@@H]2CSSC[C@H](NC1=O)C(=O)N[C@@H]([C@@H](C)O)C(=O)N[C@@H](C)C(=O)N[C@@H](CO)C(=O)N[C@@H]([C@@H](C)CC)C(=O)N1CCC[C@H]1C(=O)N1CCC[C@H]1C(=O)N[C@@H](CCC(N)=O)C(=O)N2) [Example 131]
Measured Endpoint: % inhibition at 100 µM
Measured Result: 0

Read off the recorded % inhibition at 100 µM for XETASIPPQKY (HELM PEPTIDE1{[Nle].E.T.A.S.I.P.P.Q.K.Y.[dP].P}$PEPTIDE1,PEPTIDE1,1:R1-13:R2$$$V2.0; SMILES CCCC[C@@H]1NC(=O)[C@@H]2CCCN2C(=O)[C@H]2CCCN2C(=O)[C@H](Cc2ccc(O)cc2)NC(=O)[C@H](CCCCN)NC(=O)[C@H](CCC(N)=O)NC(=O)[C@@H]2CCCN2C(=O)[C@@H]2CCCN2C(=O)[C@H]([C@@H](C)CC)NC(=O)[C@H](CO)NC(=O)[C@H](C)NC(=O)[C@H]([C@@H](C)O)NC(=O)[C@H](CCC(=O)O)NC1=O) [Example 104] 0

Read off the recorded % inhibition at 100 µM for XCTASIPPQCY (HELM PEPTIDE1{[Nle].C.T.A.S.I.P.P.Q.C.Y.[dP].D}$PEPTIDE1,PEPTIDE1,2:R3-10:R3|PEPTIDE1,PEPTIDE1,1:R1-13:R2$$$V2.0; SMILES CCCC[C@@H]1NC(=O)[C@H](CC(=O)O)NC(=O)[C@H]2CCCN2C(=O)[C@H](Cc2ccc(O)cc2)NC(=O)[C@@H]2CSSC[C@H](NC1=O)C(=O)N[C@@H]([C@@H](C)O)C(=O)N[C@@H](C)C(=O)N[C@@H](CO)C(=O)N[C@@H]([C@@H](C)CC)C(=O)N1CCC[C@H]1C(=O)N1CCC[C@H]1C(=O)N[C@@H](CCC(N)=O)C(=O)N2) [Example 121] 12.8

Read off the recorded % inhibition at 100 µM for XQTASIPPQTY (HELM PEPTIDE1{[Nle].Q.T.A.S.I.P.P.Q.T.Y.[dP].P}$PEPTIDE1,PEPTIDE1,1:R1-13:R2$$$V2.0; SMILES CCCC[C@@H]1NC(=O)[C@@H]2CCCN2C(=O)[C@H]2CCCN2C(=O)[C@H](Cc2ccc(O)cc2)NC(=O)[C@H]([C@@H](C)O)NC(=O)[C@H](CCC(N)=O)NC(=O)[C@@H]2CCCN2C(=O)[C@@H]2CCCN2C(=O)[C@H]([C@@H](C)CC)NC(=O)[C@H](CO)NC(=O)[C@H](C)NC(=O)[C@H]([C@@H](C)O)NC(=O)[C@H](CCC(N)=O)NC1=O, also called Ex. 109) [Example 109] 0
